Study system: T1, Recombinant human IL-2 (human, UniProt P60568 21-153)
T1 construct: also called rhIL-2; hIL-2
Assay details: SPR (Biacore 4000), IgG captured on anti-human IgG Fc, rhIL-2 0.11-10 nM
Quantity name: koff (s⁻¹)

Binder | Quantity name | Unit text | Measurement
XPA.92.099 (antibody, V domains shown, Tested as purified full-length human IgG; also called mAb99; clone 99) VH: QVQLVESGGGLVKPGRSLRLSCAASGFTFNRYAMSWVRQAPGKGLEWVAMISFDGGNQYYTDSVSGRFTISRDNSKTTLFLQMDSLRTEDTAVYYCVRSPAGDWVAYFDYWGQGTLVTVSS VL: DIQMTQSPSSLSASIGDRVTIPCQASEDISNHLSWYQQKPGKAPKPLIFDASDLETGVPSRFSGSGSGTDFALTISSLRPDDFATYYCHQYHDYPSYTFGHGTKLEIKR | koff | s⁻¹ | 0.00024
XPA.92.042 (antibody, V domains shown, Tested as purified full-length human IgG) VH: EVQLVQSGTEVKKAGDSLKISCKGSGYNFDTYWIGWVRQMPGRGLEWMGTIYPADSDTRYSPSFQGQVTMSADKSISTAYLQWGSLRASDTAMYYCARFSSSAYDIWGQGTMVTVSS VL: SYELTQPPSVSVSPGQTARITCSGDALPRKFAYWYQQKSGQAPVLVIYQDTKRPSGIPERFSGSSSGTTVTLTISDVQAEDDADYYCQSADRSDSYVFGAGTKLTVLG | koff | s⁻¹ | 0.00025
XPA.92.019 (antibody, V domains shown, Tested as purified full-length human IgG; also called mAb19) VH: EVQLVESGGGLVQPGRSLRLSCAASGFTFSYYGMHWVRQAPGKGLEWVADISNDGSNKYYADSVKGRFTISRDNSKTTLYLQMNSLRPEDTAVYYCATPYYDSSGLDYWGQGTLVTVSS VL: SYELTQPPSVSVSPGQTARITCSGDALPKRFAYWYQQKAGQAPVLVIYEDNKRPSGIPETLSGSSSGTTATLTISGAQEEDEADYYCYSTDNTGGLWVFGGGTKLTVLG | koff | s⁻¹ | 3.4e-05
XPA.92.041 (antibody, V domains shown, Tested as purified full-length human IgG) VH: EVQLVQSGAEVKKPGESLKISCKGSGYNFDTYWIGWVRQMPGRGLEWMGTIYPADSDTRYSPSFQGQVTTSADKSISTAYLQWGSLRASDTAMYYCARFSSSAYDIWGQGTMVTVSS VL: SYELTQPPSVSVSPGQTARITCSGDALPRQFAYWYQQKPGQAPVLVIYKDTERPSGIPERFSGSSSGTTVTLTISGVQAEDEADYYCQSADSSGTYHVFGGGTQLTVLG | koff | s⁻¹ | 0.00032

Taken from patent US20180094053A1.
